- target_entity: CYP2E1 (Homo sapiens, UniProt P05181)
- Sequence (P05181 whole entry): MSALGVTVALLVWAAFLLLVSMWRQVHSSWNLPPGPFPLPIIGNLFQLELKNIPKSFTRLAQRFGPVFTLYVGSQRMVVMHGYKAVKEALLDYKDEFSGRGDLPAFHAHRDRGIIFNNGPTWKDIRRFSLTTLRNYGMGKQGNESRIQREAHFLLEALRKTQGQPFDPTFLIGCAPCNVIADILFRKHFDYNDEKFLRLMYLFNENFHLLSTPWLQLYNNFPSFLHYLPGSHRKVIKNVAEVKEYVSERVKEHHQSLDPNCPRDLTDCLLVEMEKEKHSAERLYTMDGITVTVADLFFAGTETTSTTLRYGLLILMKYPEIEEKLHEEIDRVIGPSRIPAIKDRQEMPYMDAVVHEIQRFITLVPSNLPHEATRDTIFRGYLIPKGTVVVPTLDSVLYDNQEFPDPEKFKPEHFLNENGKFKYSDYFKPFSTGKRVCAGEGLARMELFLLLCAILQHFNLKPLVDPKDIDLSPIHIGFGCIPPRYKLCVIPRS
pIC50: −log10 of the molar value.
readout_type: pIC50

>>> test_value("CCCC(C(=O)OCCN(CC)CC)(c1ccccc1)c1ccccc1 [SKF-525A]")
"< 4.30"

====

- target_entity: CYP2A6 (Homo sapiens)
- Sequence (P11509 whole entry): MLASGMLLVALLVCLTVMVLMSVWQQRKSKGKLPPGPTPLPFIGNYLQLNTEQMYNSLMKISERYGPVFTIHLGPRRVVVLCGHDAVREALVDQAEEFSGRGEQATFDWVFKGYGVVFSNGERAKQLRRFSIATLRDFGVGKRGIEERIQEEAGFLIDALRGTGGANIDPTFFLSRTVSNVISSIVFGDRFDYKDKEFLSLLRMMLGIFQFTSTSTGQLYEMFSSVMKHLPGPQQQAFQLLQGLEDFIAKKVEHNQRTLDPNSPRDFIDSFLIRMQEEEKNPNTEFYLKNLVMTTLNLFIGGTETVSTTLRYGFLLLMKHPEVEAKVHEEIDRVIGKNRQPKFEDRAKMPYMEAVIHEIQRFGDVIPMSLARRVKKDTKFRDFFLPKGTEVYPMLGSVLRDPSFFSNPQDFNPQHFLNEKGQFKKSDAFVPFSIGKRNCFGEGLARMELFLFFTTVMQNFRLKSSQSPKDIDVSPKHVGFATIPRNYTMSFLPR
- method_summary: Cocktail probe assay in pooled HLMs: CYP2A6-catalyzed coumarin 7-hydroxylase
- Format: in vitro ADME
- particulars: pre-incubation 20 min with NADPH, mean of duplicates
pIC50: −log10 of the molar value.
readout_type: pIC50

>>> test_value("CCCC(C(=O)OCCN(CC)CC)(c1ccccc1)c1ccccc1 [SKF-525A]")
"< 4.30"

====

- target_entity: CYP1A2 (Homo sapiens, UniProt P05177)
- Sequence (P05177 whole entry): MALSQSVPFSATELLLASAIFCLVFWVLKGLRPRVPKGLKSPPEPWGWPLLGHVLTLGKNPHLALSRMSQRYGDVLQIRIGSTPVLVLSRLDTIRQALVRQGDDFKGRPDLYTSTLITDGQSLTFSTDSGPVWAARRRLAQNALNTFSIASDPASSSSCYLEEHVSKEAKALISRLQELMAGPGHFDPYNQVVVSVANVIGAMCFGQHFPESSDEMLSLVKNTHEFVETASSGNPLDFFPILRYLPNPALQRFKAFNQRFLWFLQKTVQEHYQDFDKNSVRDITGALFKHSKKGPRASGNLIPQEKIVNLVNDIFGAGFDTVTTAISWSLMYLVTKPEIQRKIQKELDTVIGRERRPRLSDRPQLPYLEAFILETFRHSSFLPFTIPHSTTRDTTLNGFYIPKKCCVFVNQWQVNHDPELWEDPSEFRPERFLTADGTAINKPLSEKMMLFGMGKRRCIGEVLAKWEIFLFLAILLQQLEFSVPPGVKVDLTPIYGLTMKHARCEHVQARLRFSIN
readout_type: IC50

>>> test_value("CCCC(C(=O)OCCN(CC)CC)(c1ccccc1)c1ccccc1 [SKF-525A]")
"> 50 µM"

====

- target_entity: UniProtKB P10635
- Sequence (P10635 whole entry): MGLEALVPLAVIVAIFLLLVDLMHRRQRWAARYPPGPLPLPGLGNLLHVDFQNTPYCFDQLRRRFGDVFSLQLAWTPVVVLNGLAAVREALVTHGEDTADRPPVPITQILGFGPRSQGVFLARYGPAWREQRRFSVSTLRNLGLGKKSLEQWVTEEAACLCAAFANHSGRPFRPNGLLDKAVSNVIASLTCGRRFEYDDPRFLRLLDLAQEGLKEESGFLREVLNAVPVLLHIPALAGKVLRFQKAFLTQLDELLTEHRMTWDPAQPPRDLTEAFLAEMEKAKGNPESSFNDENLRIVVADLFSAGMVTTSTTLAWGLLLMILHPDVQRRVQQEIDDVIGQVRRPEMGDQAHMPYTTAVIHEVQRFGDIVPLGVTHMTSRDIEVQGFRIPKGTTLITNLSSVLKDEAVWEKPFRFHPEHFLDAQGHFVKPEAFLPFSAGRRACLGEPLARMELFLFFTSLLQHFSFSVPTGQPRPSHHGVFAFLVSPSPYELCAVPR
pIC50: −log10 of the molar value.
readout_type: pIC50

>>> test_value("CCCC(C(=O)OCCN(CC)CC)(c1ccccc1)c1ccccc1 [SKF-525A]")
5.46
